Where do the numbers come from? From the supplement of paper PMC7877785.

# Experiment Notes: self-splicing fitness, log relative to wild type (ln ratio); higher = more splicing; Tetrahymena group I intron in knt gene, E. coli kanamycin selection, DiMSum; sequences stand for … in CUCUCU…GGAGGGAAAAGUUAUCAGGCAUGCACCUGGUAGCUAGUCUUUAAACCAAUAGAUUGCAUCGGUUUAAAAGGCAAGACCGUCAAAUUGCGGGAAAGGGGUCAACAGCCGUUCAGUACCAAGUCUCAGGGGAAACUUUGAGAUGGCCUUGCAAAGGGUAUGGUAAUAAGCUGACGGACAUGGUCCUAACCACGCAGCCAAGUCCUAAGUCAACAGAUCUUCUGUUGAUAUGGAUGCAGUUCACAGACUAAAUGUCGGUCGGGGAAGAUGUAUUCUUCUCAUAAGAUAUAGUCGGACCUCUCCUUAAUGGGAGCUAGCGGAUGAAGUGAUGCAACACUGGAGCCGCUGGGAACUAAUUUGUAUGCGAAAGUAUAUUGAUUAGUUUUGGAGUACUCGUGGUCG;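 further: selection with 25 µg/mL kanamycin versus none on LB agar overnight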
# Experimental Conditions: 37 °C
Metric: self-splicing fitness (ln)

| Residues | Recorded Measurement |
| --- | --- |
| AACUAGCAAUAUUACGCCAA | -1.63 |
| GUUUAGCAAUAUUACGUCGG | -2.12 |
| AAAUAGCAAUAUUACGGGGC | -2.34 |
| GUUCAGCAAUAUUACGACGC | 0.651 |
| CCGAAGCAAUAUUACGCGUG | -2.56 |
| CGGUAGCAAUAUUACGCGUC | -1.81 |
| UGAUAGCAAUAUUACGGCGC | -1.18 |
| GAAAAGCAAUAUUACGGAUG | -1.14 |
| CCUCAGCAAUAUUACGAAGC | -2.44 |
| UGGAAGCAAUAUUACGCUUG | -2.53 |
| CGCGAGCAAUAUUACGGUAU | -2.81 |
| CAUAAGCAAUAUUACGUGCC | -2.66 |
| GACGAGCAAUAUUACGUAUC | -2.42 |
| UGACAGCAAUAUUACGGCGG | 0.0557 |
